Origin of values: paper PMC11238919

subject-of-test: T1, His-tagged SHIP2-SH2 domain (UniProt O15357 21-117)
T1 sequence (looked up): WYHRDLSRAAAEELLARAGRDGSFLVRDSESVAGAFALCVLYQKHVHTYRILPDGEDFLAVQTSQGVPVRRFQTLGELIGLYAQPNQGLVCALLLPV
procedure-summary: SPR
Where no end group is shown, it is not given here. [ ]: non-standard residue; d: D form. pY = N[C@@H](Cc1ccc(OP(=O)(O)O)cc1)C(=O)O
experimental-readout: pKd
pKd field: float, defined as -log10 of concentration (mol/L).

Query: Which pKd reading was recorded for the binder VSPEPI[pY]ATIDDL [tyrosine-phosphorylated EPIYA-C peptide (VSPEPIpYATIDDL)] ?
Response: 5.08
